Hey, just so you know, these numbers are from patent US20210070843A1.

- measurement.target: full-length H5 A/Vietnam/1203/2004 HA expressed on 293T cells (influenza A virus A/Vietnam/1203/2004 (H5N1))
- test.protocol: flow cytometry, HA-expressing 293T
Here, each record is paired with measured max. MFI data.
value.type: max. MFI (MFI)

[[record]]
binder = "P10 (antibody, V domains shown) VH: EVQLVESGGGLVQPGGSLRLSCAASGFTIDNSWIHWVRQAPGKGLEWVASIWPFGGYTYYADSVKGRFTISADTSKNTAYLQMNSLRAEDTAVYYCARFGNVFDWYMDYWGQGTLVTVSS VL: DIQMTQSPSSLSASVGDRVTITCRASQDVNSNVAWYQQKPGKAPKLLIYWAGYLYSGVPSRFSGSGSGTDFTLTISSLQPEDFATYYCQQSSDFPITFGQGTKVEIKR"
value_type = "max. MFI"
units_label = "MFI"
reported_measurement = 517

[[record]]
binder = "S51 (antibody, V domains shown) VH: EVQLVESGGGLVQPGGSLRLSCAASGFTIDDWGIHWVRQAPGKGLEWVAWIWPYGGFTSYADSVKGRFTISADTSKNTAYLQMNSLRAEDTAVYYCARFGFVDWNLMDYWGQGTLVTVSS VL: DIQMTQSPSSLSASVGDRVTITCRASQDVWGYVAWYQQKPGKAPKLLISYTTYLYSGVPSRFSGSGSGTDFTLTISSLQPEDFATYYCQQYYNSPVTFGQGTKVEIKR"
value_type = "max. MFI"
units_label = "MFI"
reported_measurement = 452

